Test system: antibodies in sera from SARS patients (sera 1a, 1b, 2, 6, 37, 62, London, SARS-yellow, SARS-green)
Assay type: binding, human
Recorded measurements of Binding of serum 1a to looped/cyclic peptides of protein X4 of SARS-CoV Urbani, one per entry
Output spec: single numeric token, no unit.

Task item: Tell us which Binding of serum 1a to looped/cyclic peptides of protein X4 of SARS-CoV Urbani value is on record for AALVFLILCFTIKRK
Reply: 0.8

Task item: Tell us which Binding of serum 1a to looped/cyclic peptides of protein X4 of SARS-CoV Urbani value is on record for SCELYHYQECVRGTT
Reply: 0.5

Task item: Tell us which Binding of serum 1a to looped/cyclic peptides of protein X4 of SARS-CoV Urbani value is on record for THFAFACADGTRHTY
Reply: 0.7

Task item: Tell us which Binding of serum 1a to looped/cyclic peptides of protein X4 of SARS-CoV Urbani value is on record for YSPLFLIVAALVFLI
Reply: 0.7

Further cases:
Task item: Tell us which Binding of serum 1a to looped/cyclic peptides of protein X4 of SARS-CoV Urbani value is on record for LLKEPCPSGTYEGNS
Reply: 0.8
